Molecular target: human recombinant mGluR5 (Homo sapiens, UniProt P41594)
Construct: hygromycin and geneticin selection
Sequence (P41594 21-1212): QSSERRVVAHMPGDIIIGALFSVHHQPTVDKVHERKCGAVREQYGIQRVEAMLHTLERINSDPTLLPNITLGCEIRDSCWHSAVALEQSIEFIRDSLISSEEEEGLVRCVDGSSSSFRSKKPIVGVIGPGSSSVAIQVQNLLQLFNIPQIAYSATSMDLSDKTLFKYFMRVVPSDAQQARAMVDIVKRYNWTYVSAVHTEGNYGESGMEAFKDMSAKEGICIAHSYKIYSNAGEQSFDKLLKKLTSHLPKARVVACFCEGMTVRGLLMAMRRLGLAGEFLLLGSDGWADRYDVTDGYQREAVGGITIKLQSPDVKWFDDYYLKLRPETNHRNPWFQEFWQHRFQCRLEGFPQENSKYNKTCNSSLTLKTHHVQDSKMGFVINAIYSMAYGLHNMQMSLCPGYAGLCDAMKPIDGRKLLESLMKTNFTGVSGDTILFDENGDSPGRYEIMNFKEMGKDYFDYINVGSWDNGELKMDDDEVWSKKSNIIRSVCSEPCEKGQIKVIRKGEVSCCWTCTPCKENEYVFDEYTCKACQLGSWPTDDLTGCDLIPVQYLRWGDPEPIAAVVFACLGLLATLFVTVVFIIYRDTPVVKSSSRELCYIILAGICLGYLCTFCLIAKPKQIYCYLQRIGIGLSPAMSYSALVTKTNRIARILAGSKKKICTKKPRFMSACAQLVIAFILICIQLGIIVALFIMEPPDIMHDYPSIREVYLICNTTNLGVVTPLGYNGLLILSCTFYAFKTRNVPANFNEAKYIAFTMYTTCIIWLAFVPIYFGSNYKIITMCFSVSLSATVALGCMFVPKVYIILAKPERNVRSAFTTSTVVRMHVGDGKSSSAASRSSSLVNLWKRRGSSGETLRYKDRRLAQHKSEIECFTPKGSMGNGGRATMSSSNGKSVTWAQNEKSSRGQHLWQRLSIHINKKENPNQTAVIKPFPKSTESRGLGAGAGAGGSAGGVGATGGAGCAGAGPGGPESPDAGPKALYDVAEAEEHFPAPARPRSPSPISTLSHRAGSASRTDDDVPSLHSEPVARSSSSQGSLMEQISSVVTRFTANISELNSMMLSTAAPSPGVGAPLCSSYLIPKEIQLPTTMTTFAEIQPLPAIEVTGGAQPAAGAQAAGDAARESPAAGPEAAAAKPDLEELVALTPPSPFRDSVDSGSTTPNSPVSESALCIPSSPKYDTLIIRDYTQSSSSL
Assay: positive modulation of mGluR5, calcium based FLIPR assay
Conditions: HEK 293 cell line expressing human recombinant mGluR5; Ca2+ peak height after glutamate at approximately 5% basal stimulation; nonlinear regression
Mark Criterion met for EC50 under 80 nM, Criterion not met if at or over.

| MOLECULE | CLASS ASSIGNMENT |
| --- | --- |
| Cc1cc(C(=O)N2CCN(C(=O)c3ncn(-c4cccc(F)c4)n3)C(C)(C)C2)oc1C | Criterion not met |
| Cc1c(C(=O)N2CCN(C(=O)c3ncn(-c4ccccc4)n3)C(C)(C)C2)oc2ccc(F)cc12 | Criterion not met |

Q) Would you kindly verify if EC50 of "COc1cc(Cl)cc(C(=O)N2CCN(C(=O)c3nnn(-c4cccc(Cl)c4)n3)C(C)(C)C2)n1" is strictly less than 80 nM?
A) Criterion met

Q) A record lists "CC1(C)CN(C(=O)c2cccc(-c3cnco3)c2)CCN1C(=O)c1ncn(-c2ccccc2)n1" . Is its EC50 below 80 nM?
A) Criterion not met

Q) Could you please tell me whether EC50 recorded for "CC1(C)CN(C(=O)c2ccnc(C(F)(F)F)n2)CCN1C(=O)c1ncn(-c2ccccc2)n1" is less than 80 nM?
A) Criterion not met

Q) Threshold test, EC50 < 80 nM: COCC1(C)CN(C(=O)c2cccc(OC)n2)CCN1C(=O)c1ncn(-c2cccc(Cl)c2)n1 (stereo not shown)
A) Criterion not met

====

Biological target: human recombinant mGluR5 (Homo sapiens)
Construct: hygromycin and geneticin selection
Assay: positive modulation of mGluR5, calcium based FLIPR assay
Conditions: HEK 293 cell line expressing human recombinant mGluR5; Ca2+ peak height after glutamate at approximately 5% basal stimulation; nonlinear regression
PROPERTY LABEL: EC50 (nM)
Just the number please, in nM, no unit attached.

| COMPOUND STRING | EC50 [nM] |
| --- | --- |
| COc1cccc(C(=O)N2C[C@@H](C)N(C(=O)c3ncn(-c4cccc(C)c4)n3)[C@@H](C)C2)n1 | 166 |

Q) Looking for the measured EC50 of "Cc1c(C(=O)N2CCN(C(=O)c3ncn(-c4cccc(Cl)c4)n3)C[C@@H]2C)oc2ccc(F)cc12" , can you help?
A) 336

Q) What value of EC50 has been recorded for this entry: "CC1(C)CN(C(=O)c2cc3ccccc3c(C3CC3)n2)CCN1C(=O)c1nnn(-c2ccccc2)n1"
A) 42

Q) Sample "Cc1oc2ccc(Br)cc2c1C(=O)N1CCN(C(=O)c2ncn(-c3ccccc3)n2)C(C)(C)C1" — what was its EC50?
A) 29

Q) Please report the recorded EC50 for "COc1nc(C(=O)N2CCN(C(=O)c3nnn(-c4cccc(Cl)c4)n3)C(C)(C)C2)cc2ccccc12" .
A) 125

Q) For "COc1cccc(C(=O)N2CCN(C(=O)c3ncn(-c4cccc(Cl)c4)n3)C[C@H]2C)n1" , what is its reported EC50?
A) 169

Q) Form field: reported EC50 of "COc1cc(Cl)cc(C(=O)N2CCN(C(=O)c3ncn(-c4cccc(Cl)c4)n3)C(C)(C)C2)n1"
A) 45

====

Target: human recombinant mGluR5 (Homo sapiens, UniProt P41594)
Construct: hygromycin and geneticin selection
Experiment: positive modulation of mGluR5, calcium based FLIPR assay
Details: HEK 293 cell line expressing human recombinant mGluR5; Ca2+ peak height after glutamate at approximately 5% basal stimulation; nonlinear regression
PROPERTY LABEL: EC50 (nM)
Hi! Could you send only the number? It should be in nM, unit omitted.

| COMPOUND | EC50 (nM) |
| --- | --- |
| COc1cccc(C(=O)N2CCN(C(=O)c3ncn(-c4cccc(Cl)c4)n3)CC2C)n1 (stereo not shown) [Example 211] | 264 |
| CC1(C)CN(C(=O)c2cc(Br)c(Br)o2)CCN1C(=O)c1ncn(-c2cccc(Cl)c2)n1 [Example 25] | 62 |

Q) Entry CC1(C)CN(C(=O)c2cccc(C3CCOCC3)n2)CCN1C(=O)c1ncn(-c2cccc(Cl)c2)n1 [Example 176] : reported EC50 = ?
A) 366

Q) Quick one: EC50 of Cc1c(C(=O)N2CCN(C(=O)c3ncn(-c4cccc(Cl)c4)n3)CC2C)oc2ccc(F)cc12 (stereo not shown) [Example 212] ?
A) 568

Q) # input compound: CC1(C)CN(C(=O)c2cc(Cl)cc(C(F)(F)F)c2)CCN1C(=O)c1ncn(-c2cccc(Cl)c2)n1 [Example 29] ; wanted: its EC50
A) 109

Q) Please look up its EC50: CC1CN(C(=O)c2cc(Br)c(Br)o2)CCN1C(=O)c1ncn(-c2cccc(Cl)c2)n1 (stereo not shown) [Example 266]
A) 538

Q) // EC50 lookup, key: Cc1cccc(-n2cnc(C(=O)N3CCN(C(=O)c4oc5ccc(F)cc5c4C)C(C)C3)n2)c1 (stereo not shown) [Example 236]
A) 1620

====

Biological target: human recombinant mGluR5 (Homo sapiens, UniProt P41594)
Construct: hygromycin and geneticin selection
Assay: positive modulation of mGluR5, calcium based FLIPR assay
Settings: HEK 293 cell line expressing human recombinant mGluR5; Ca2+ peak height after glutamate at approximately 5% basal stimulation; nonlinear regression
Reported EC50 is given for each of the following compounds.
Your answer is read as nM, so omit the unit and give the number.

Illustrative cases are given below, each with its answer.
| COMPOUND | PROPERTY LABEL | RECORDED RESULT |
| --- | --- | --- |
| CC1CN(C(=O)c2ncn(-c3cccc(Cl)c3)n2)CCN1C(=O)c1cc2c(Cl)cccc2s1 (stereo not drawn) | EC50 | 330 |
| Cn1ccc2cc(C(=O)N3CCN(C(=O)c4ncn(-c5cccc(Cl)c5)n4)C(C)(C)C3)ccc21 | EC50 | 120 |
| CC1CN(C(=O)c2ncn(-c3cccc(Cl)c3)n2)CCN1C(=O)c1cccc(-c2nccs2)c1 (stereo not drawn) | EC50 | 422 |
| CC1(C)CN(C(=O)c2cc(Br)c(Br)o2)CCN1C(=O)c1ncn(-c2cccc(F)c2)n1 | EC50 | 104 |

Q) Which EC50 reading was recorded for the compound "CC1(C)CN(C(=O)c2cccc(C3CC3)n2)CCN1C(=O)c1nnn(-c2ccccc2)n1" ?
A) 16

Q) Requested read-out: EC50. Entry: "COc1cccc(C(=O)N2CCN(C(=O)c3ncn(-c4ccc(C)c(F)c4)n3)C(C)(C)C2)n1"
A) 693

====

Molecular target: human recombinant mGluR5 (Homo sapiens)
Construct: expressed in transfected cells; hygromycin and geneticin selection
Experiment: positive modulation of mGluR5, calcium based FLIPR assay
Details: HEK 293 cell line expressing human recombinant mGluR5; Ca2+ peak height after glutamate at approximately 5% basal stimulation; nonlinear regression
Parameter: EC50. Scope: all listed entries.
Return type: number; implicit unit nM.

| MOLECULE | U | EC50 |
| --- | --- | --- |
| CC1(C)CN(C(=O)c2ccnc(C(F)(F)F)c2)CCN1C(=O)c1ncn(-c2cccc(Cl)c2)n1 | nM | 375 |

Q) Given the entry COc1cccc(C(=O)N2CCN(C(=O)c3ncn(-c4cccc(Br)c4)n3)C(C)C2)n1 (stereo not shown) , report its measured EC50.
A) 376

Q) Field request: EC50 | item: "CC1(C)CN(C(=O)c2cccc(C3(F)COC3)c2)CCN1C(=O)c1ncn(-c2cccc(Cl)c2)n1"
A) 58

Q) Looking for the measured EC50 of "CC1(C)CN(C(=O)c2cccc(C3CC3)n2)CCN1C(=O)c1ncn(-c2cccc(F)c2)n1" , can you help?
A) 33

====

Property: pEC50; scope: individual compounds
Molecular target: human recombinant mGluR5 (Homo sapiens)
Construct: hygromycin and geneticin selection
Assay: positive modulation of mGluR5, calcium based FLIPR assay
Conditions: HEK 293 cell line expressing human recombinant mGluR5; Ca2+ peak height after glutamate at approximately 5% basal stimulation; nonlinear regression
For clarity, pEC50 is expressed as the negative log10 of concentration in mol/L.

| COMPOUND | pEC50 |
| --- | --- |
| CC1(C)CN(C(=O)c2cc(Cl)cc(Br)c2)CCN1C(=O)c1ncn(-c2ccccc2)n1 | 7.08 |
| COc1cccc(C(=O)N2CCN(C(=O)c3ncn(-c4cccc(Cl)c4)n3)[C@@H](C)C2)n1 | 6.81 |
| C[C@H]1CN(C(=O)c2ncn(-c3cccc(Cl)c3)n2)CCN1C(=O)c1cc(Br)c(Br)o1 | 6.80 |
| Cc1oc2ccccc2c1C(=O)N1CCN(C(=O)c2ncn(-c3ccccc3)n2)C(C)C1 (centres unmarked) | 7.02 |
| CC1(C)CN(C(=O)c2cccc(C#N)n2)CCN1C(=O)c1ncn(-c2cccc(Cl)c2)n1 | 6.69 |

Q) Item "CC1(C)CN(C(=O)c2cc(Cl)c(F)c(Cl)c2)CCN1C(=O)c1ncn(-c2ccccc2)n1" with human recombinant mGluR5 (Homo sapiens) - pEC50?
A) 6.63

Q) What reported pEC50 corresponds to "CC1(C)CN(C(=O)c2cc(Cl)c3c(c2)OCCO3)CCN1C(=O)c1nnn(-c2cccc(Cl)c2)n1" on human recombinant mGluR5 (Homo sapiens)?
A) 7.25

Q) # returns recorded pEC50 (system: human recombinant mGluR5 (Homo sapiens)) for CC(C)COc1cccc(C(=O)N2CCN(C(=O)c3ncn(-c4cccc(Cl)c4)n3)C(C)C2)c1 (centres unmarked)
A) 6.22

Data origin, for the record: patent US8883789B2
